pEC50 values by entry
target: full-length beta-catenin (Axin site) (Homo sapiens, UniProt P35222)
Construct: 15 nM full-length beta-catenin, 20 nM FITC labeled peptide in buffer
Sequence (P35222 1-781): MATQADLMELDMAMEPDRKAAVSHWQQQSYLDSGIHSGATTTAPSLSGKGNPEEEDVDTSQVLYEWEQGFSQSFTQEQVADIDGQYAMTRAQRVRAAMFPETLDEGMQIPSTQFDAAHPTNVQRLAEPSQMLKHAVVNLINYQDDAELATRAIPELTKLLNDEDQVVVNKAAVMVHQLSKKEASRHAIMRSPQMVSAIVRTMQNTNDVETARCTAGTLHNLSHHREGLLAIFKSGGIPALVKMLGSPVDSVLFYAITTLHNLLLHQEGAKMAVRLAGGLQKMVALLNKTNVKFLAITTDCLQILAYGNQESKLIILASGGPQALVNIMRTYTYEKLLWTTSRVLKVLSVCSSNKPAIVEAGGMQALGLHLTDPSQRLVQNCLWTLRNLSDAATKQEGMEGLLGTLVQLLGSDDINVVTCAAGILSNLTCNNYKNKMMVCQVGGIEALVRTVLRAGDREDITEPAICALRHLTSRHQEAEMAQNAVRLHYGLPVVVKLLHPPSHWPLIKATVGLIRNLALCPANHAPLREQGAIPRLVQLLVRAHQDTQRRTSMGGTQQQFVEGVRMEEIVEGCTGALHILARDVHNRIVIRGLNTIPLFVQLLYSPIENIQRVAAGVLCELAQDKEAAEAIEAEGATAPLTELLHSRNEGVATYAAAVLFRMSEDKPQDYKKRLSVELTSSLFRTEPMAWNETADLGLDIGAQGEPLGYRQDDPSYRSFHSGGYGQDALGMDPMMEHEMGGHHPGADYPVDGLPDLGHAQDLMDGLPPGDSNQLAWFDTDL
procedure_summary: Competition fluorescence polarization assay (Axin site probe)
Assay type: binding
test_parameters: competition fluorescence polarization, Table 2; read-out: in vitro FP EC50
pEC50: −log10 of the molar value.
assay_readout: pEC50

[
  {
    "compound": "CC[C@H](C)[C@@H]1NC(=O)[C@](C)(NC(=O)[C@H](CCC(N)=O)NC(=O)[C@@H]2CCCN2C(C)=O)CCC=CCOC(=O)N2CC(C(=O)N[C@@H](Cc3c[nH]cn3)C(=O)N[C@H](C(=O)N[C@@H](CCCNC(=N)N)C(=O)N[C@@H](CCCNC(=N)N)C(=O)N[C@H](C(=O)N[C@@H](Cc3c[nH]c4ccccc34)C(=O)N[C@@H](CCCNC(=N)N)C(N)=O)C(C)C)C(C)C)(C2)NC(=O)[C@H](CC(=O)O)NC(=O)[C@H](CC(C)C)NC1=O (single isomer, unassigned) [FP0731c, Ac-P-Q-R4-I-L-D-MA-H-V-R-R-V-W-R-NH2]",
    "target": "full-length beta-catenin (Axin site) (Homo sapiens, UniProt P35222)",
    "assay_readout": "pEC50",
    "assay_result": "5.30 to 6.30"
  },
  {
    "compound": "CC[C@H](C)[C@@H]1NC(=O)C2(NC(=O)[C@H](CCC(N)=O)NC(=O)[C@@H]3CCCN3C(C)=O)CN(CC=CCCCC[C@](C)(C(=O)N[C@@H](Cc3c[nH]cn3)C(=O)N[C@H](C(=O)N[C@@H](CCCNC(=N)N)C(=O)N[C@@H](CCCNC(=N)N)C(=O)N[C@H](C(=O)N[C@@H](Cc3c[nH]c4ccccc34)C(=O)N[C@@H](CCCNC(=N)N)C(N)=O)C(C)C)C(C)C)NC(=O)[C@H](CC(=O)O)NC(=O)[C@H](CC(C)C)NC1=O)C2 (single isomer, unassigned) [FP0725a, Ac-P-Q-MA-I-L-D-R6-H-V-R-R-V-W-R-NH2]",
    "target": "full-length beta-catenin (Axin site) (Homo sapiens, UniProt P35222)",
    "assay_readout": "pEC50",
    "assay_result": "5.30 to 6.30"
  }
]
